Every entry's value here was drawn from PubChem BioAssay (EPA / NIEHS).

read-out: Macrophage colony-stimulating factor (MCSF), CSF1 (gene 1435); assay: BSK_LPS_MCSF: BioMAP Diversity Plus: LPS Assay for Macrophage colony-stimulating factor (MCSF) Biomarker Activity (AID 2283083); details: primary human HUVEC with PBMC; actives raise or lower the signal
The source made the active and inactive calls. Rule for the calls: active = hit-call score of the fitted dose curve at least 0.9, where 1 is the maximum; inactive = score below 0.9.
Log the outcome using a class from active, inactive

INPUT: Recorded test call requested for `CNC(=O)CSP(=S)(OC)OC`
OUTPUT: inactive

INPUT: Recorded test call requested for `C#CCN1C(=O)COc2cc(F)c(N3C(=O)C4=C(CCCC4)C3=O)cc21`
OUTPUT: inactive

----------
experiment: CCTE_Simmons_MITO_viability: CellTiter-Glo Viability Assessment for CCTE's HepG2 Seahorse XF Respirometric Screening Assay [post-hoc], Simmons Lab (AID 2284007)
Results filed as inconclusive are left out. The source made the active and inactive calls. The calls were made as follows: active = hit-call score of the fitted dose curve at least 0.9, where 1 is the maximum; inconclusive = response in the unintended direction; inactive = score below 0.9.
Log the outcome using a class from active, inactive

# COMPOUND, ANSWER_LABEL
measured = [
    ("C#CCN1C(=O)COc2cc(F)c(N3C(=O)C4=C(CCCC4)C3=O)cc21", "inactive"),
    ("Oc1ccc(Cl)cc1Cc1ccccc1", "inactive"),
    ("N#Cc1c(Cl)c(Cl)c(Cl)c(C#N)c1Cl", "active"),
    ("CC1(c2ccc(Oc3ccccc3)cc2)OC(=O)N(Nc2ccccc2)C1=O (stereo not drawn)", "inactive"),
    ("Oc1cc(Cl)ccc1Oc1ccc(Cl)cc1Cl", "inactive"),
]

INPUT: Recorded test call requested for CCOC1Oc2ccc(OS(C)(=O)=O)cc2C1(C)C (stereo not drawn)
OUTPUT: inactive

INPUT: Recorded test call requested for `CCCN(CCOc1c(Cl)cc(Cl)cc1Cl)C(=O)n1ccnc1`
OUTPUT: active

INPUT: Recorded test call requested for `COP(=S)(OC)Oc1ccc([N+](=O)[O-])cc1`
OUTPUT: inactive
